# test.target: T1, GST-β-catenin (UniProt P35222 133-665)
# T1 construct: range 133-665; GST fusion purified on glutathione-agarose and used in the FP assays; also called GST-β-catenin(133-665); pGEX-β-catenin(133-665); not shown: glutathione S-transferase (GST) tag encoded by the pGEX plasmid
# T1 sequence (looked up): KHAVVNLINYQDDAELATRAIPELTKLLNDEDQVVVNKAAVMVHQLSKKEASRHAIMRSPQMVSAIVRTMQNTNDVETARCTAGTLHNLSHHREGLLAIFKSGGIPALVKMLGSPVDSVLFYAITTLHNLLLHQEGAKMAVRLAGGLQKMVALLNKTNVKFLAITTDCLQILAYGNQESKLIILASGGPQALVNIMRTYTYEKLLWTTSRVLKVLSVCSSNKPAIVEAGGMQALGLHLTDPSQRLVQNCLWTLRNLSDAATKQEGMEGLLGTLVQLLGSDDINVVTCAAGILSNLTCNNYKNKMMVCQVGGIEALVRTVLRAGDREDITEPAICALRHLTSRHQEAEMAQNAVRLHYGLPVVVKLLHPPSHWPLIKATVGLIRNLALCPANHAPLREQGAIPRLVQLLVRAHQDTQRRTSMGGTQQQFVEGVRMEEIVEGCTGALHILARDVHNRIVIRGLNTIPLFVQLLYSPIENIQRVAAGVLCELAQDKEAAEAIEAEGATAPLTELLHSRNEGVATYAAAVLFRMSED
# experiment.notes: Table 7, binding to β-catenin; FP competition as for peptides 2-5 presumed
Positions of bridges follow the written chain, without caps; N, C: chain ends. Non-standard residues stand in square brackets, D forms with d. m‑xylene = 1,3-bis[(methylthio)methyl]benzene scaffold from m-xylene dibromide; miniPEG = polyethylene glycol moiety (linker unit); Bta = N[C@@H](Cc1csc2ccccc12)C(=O)O; Dap = NC[C@H](N)C(=O)O; βAla = NCCC(=O)O

| binder | IC50 / µM |
| --- | --- |
| Ac-GGYPECILDCKHLQDVILK[βAla]-NH2 (lactam (positions not given here); linker 6-10 via m‑xylene; not fully specified; also: Asp-Lys staple, places not given here (residues shown as images), Double stapled peptide) [Peptide 7] | 3.2 |
| Ac-YPEDILDKHLQ[dE]V[Bta]T[miniPEG][miniPEG][Dap]-NH2 (lactam 4-8) [Peptide 22] | 3.5 |
| Ac-YPEDILDKHLQEV[Bta]T[miniPEG][miniPEG][Dap]-NH2 (lactam 4-8) [Peptide 20] | 1.8 |
| Ac-GGYPEDILDKHLQCVILC[βAla]-NH2 (lactam 6-10; linker 14-18 via m‑xylene, Double stapled peptide) [Peptide 8] | 525 |
